Target or system CDK2 (UniProt P24941); recorded quantity IC50.
observed_property: IC50 (µM)

In the examples that follow, each entry is paired with its recorded IC50.
smi	unit	IC50
Clc1cncc(-n2cnc3ccccc32)n1	µM	35
c1cn(-c2cncc(-n3ccnc3)n2)cn1	µM	105
Clc1cncc(N(Cc2ccccc2)C2CCCCC2)n1	µM	64
Fc1ccc(Nc2cncc(Cl)n2)cc1	µM	16

A: Oc1ccc(Nc2cncc(Cl)n2)cc1
B: Clc1cncc(N2CCc3ccccc3C2)n1
C: Cc1cc2cc(CNc3cncc(Cl)n3)ccc2[nH]1
I would appreciate it if you could sort these 3 compounds by IC50, starting from the smallest number. Please list each label once, in the requested order.
C, A, B

---

Form: system (CDK2 (UniProt P24941)), quantity (pIC50), values below.
pIC50: −log10 of the molar value.
observed_property: pIC50

A: CCOC(=O)c1ccc(CNc2cncc(Cl)n2)o1
B: CC(C)(C)c1cc(N)n(-c2cncc(Cl)n2)n1
In terms of reported pIC50, does A or B have the smaller number? // caller expects the label of the chosen entry
B

---

What follows is a collection of pIC50 values obtained with CDK2 (UniProt P24941).
pIC50: −log10 of the molar value.
observed_property: pIC50

Worked examples, 5 compounds total:
smi	observed_property	readout_value
Clc1cncc(-n2cccn2)n1	pIC50	4.09
Clc1cncc(Nc2ccccc2)n1	pIC50	5.05
OCCN(c1cncc(Cl)n1)C1CCCCC1	pIC50	4.27
Oc1cccc(Nc2cncc(Cl)n2)c1	pIC50	5.22
Clc1cncc(NC[C@H]2CCCN2)n1	pIC50	5.30

P: O=c1[nH]c2ccccc2n1-c1cncc(Cl)n1
Q: c1ccc(Nc2cncc(-n3ccnc3)n2)cc1
R: Clc1cncc(NCCc2c[nH]cn2)n1
S: Clc1cncc(NCCNc2cncc(Cl)n2)n1
Ascending by pIC50, please. # respond with the labels, arranged in the requested order
R, S, P, Q
(R: 4.14, S: 4.37, P: 5.00, Q: 5.26)

Entry source: the Kinase Knowledgebase extract (Sharma et al. 2016)
